Molecular target: CFTR (Homo sapiens, UniProt P13569)
Sequence (P13569 with tags, fused parts or gaps DEL508-508): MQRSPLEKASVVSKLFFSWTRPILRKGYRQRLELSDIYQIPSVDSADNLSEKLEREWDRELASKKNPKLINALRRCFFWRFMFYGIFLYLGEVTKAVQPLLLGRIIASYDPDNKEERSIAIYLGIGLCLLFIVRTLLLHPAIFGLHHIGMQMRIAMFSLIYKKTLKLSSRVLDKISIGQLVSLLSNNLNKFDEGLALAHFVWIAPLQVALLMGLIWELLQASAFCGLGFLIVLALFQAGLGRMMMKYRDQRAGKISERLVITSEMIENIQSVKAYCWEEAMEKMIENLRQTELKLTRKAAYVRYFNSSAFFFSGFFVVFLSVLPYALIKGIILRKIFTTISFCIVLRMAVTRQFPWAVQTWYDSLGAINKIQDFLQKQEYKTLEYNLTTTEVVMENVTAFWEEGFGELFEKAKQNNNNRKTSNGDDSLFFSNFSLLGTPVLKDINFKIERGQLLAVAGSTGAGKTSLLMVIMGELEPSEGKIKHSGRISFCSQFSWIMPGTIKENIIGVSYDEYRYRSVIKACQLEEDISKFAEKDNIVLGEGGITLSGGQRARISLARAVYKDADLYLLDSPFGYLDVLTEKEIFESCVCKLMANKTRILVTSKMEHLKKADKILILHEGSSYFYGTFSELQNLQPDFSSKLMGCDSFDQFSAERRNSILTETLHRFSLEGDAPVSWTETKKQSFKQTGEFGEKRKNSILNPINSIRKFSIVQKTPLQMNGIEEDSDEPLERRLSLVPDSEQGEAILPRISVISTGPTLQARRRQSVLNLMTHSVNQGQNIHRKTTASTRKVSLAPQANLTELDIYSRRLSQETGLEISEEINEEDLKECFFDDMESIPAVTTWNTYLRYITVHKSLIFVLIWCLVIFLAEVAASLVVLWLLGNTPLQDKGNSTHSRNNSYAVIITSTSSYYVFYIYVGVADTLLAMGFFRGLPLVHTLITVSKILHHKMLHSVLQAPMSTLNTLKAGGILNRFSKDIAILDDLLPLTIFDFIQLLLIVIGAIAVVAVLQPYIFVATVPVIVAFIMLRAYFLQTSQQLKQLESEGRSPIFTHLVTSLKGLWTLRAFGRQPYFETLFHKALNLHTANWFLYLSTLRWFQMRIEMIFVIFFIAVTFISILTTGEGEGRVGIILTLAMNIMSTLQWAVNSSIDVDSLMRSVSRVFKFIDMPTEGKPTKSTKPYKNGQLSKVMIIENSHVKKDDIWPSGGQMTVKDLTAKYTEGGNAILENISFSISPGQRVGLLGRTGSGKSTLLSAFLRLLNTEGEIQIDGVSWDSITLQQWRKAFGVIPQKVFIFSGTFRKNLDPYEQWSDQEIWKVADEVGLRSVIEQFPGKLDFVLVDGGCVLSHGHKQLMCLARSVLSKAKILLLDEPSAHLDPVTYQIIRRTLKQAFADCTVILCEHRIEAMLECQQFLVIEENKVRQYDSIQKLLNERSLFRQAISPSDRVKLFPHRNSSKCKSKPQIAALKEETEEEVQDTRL
Experiment: Membrane Potential Dye, Enteroid Assay B
Format: cell-based
Conditions: Table 9
METRIC_NAME: Ent. B Max Activity

Cc1cccc(C)c1-c1cc2nc(n1)NS(=O)(=O)c1cccc(c1)C(=O)NCc1cc(Cl)ccc1O2 [Compound 295] ... +++ (+++ is >60%)
C=CCCCCCC[C@@H]1COc2cc(-c3ccccc3C=C)nc(n2)NS(=O)(=O)c2cccc(c2)C(=O)N1 [Compound 35] ... ++ (++ is 30-60%)
CCC(C)(C)C(=O)N1C[C@H]2NC(=O)c3cccc(c3)S(=O)(=O)Nc3nc(cc(-c4c(C)cccc4C)n3)O[C@@H]2C1 [Compound 369] ... ++ (++ is 30-60%)
Cc1cccc(C)c1-c1cc2nc(n1)NS(=O)(=O)c1cccc(c1)C(=O)N[C@@H]1CN(Cc3ccc(C(F)(F)F)cc3)C[C@H]1O2 [Compound 379] ... ++ (++ is 30-60%)
Cc1cccc(/C=C/C(C)C)c1-c1cc2nc(n1)NS(=O)(=O)c1cccc(c1)C(=O)N[C@H](CC(C)C)CO2 [Compound 390] ... +++ (+++ is >60%)
Cc1cccc(C)c1-c1cc2nc(n1)NS(=O)(=O)c1cccc(c1)C(=O)NCC(CC(C)C)(CC(C)C)CO2 [Compound 496] ... +++ (+++ is >60%)
Cc1cccc(CCC(C)C)c1-c1cc2nc(n1)NS(=O)(=O)c1cccc(c1)C(=O)N[C@H](CC(C)C)CO2 [Compound 389] ... +++ (+++ is >60%)
Cc1cccc(C)c1-c1cc2nc(n1)NS(=O)(=O)c1cccc(c1)C(=O)N[C@@H]1CN(Cc3ccc(C(C)(C)C)cc3)C[C@H]1O2 [Compound 63] ... +++ (+++ is >60%)
Cc1cccc(O)c1-c1cc2nc(n1)NS(=O)(=O)c1cccc(c1)C(=O)N[C@H](CC(C)C)CO2 [Compound 163] ... ++ (++ is 30-60%)
O=C1N[C@@H]2CCCCCC/C=C/c3ccccc3-c3cc(nc(n3)NS(=O)(=O)c3cccc1c3)OC2 [Compound 36] ... +++ (+++ is >60%)

Prompt: // lookup Ent. B Max Activity | system=CFTR (Homo sapiens, UniProt P13569) | key= O=C1N[C@@H]2CCCCCCCc3ccccc3-c3cc(nc(n3)NS(=O)(=O)c3cccc1c3)OC2 [Compound 217]
Completion: +++ (+++ is >60%)

* * *

Molecular target: F508del (Homo sapiens, UniProt P13569, DEL508-508)
Construct: expressed in transfected cells
Sequence (P13569 with tags, fused parts or gaps DEL508-508): as above
Assay: 3T3 assay: membrane potential optical assay for F508del correction in NIH 3T3 cells
Assay type: cell-based
Conditions: NIH 3T3 cells, F508del correction
pEC50: −log10 of the molar value.
METRIC_NAME: pEC50

COc1cccc(C)c1-c1cc2nc(n1)NS(=O)(=O)c1cccc(c1)C(=O)N[C@H](CC(C)C)CO2 [Compound 318] ... > 6.00
Cc1cccc(C)c1-c1cc2nc(n1)NS(=O)(=O)c1cccc(c1)C(=O)N[C@H](CC(C)C)CO2 [Compound 96] ... > 6.00
Cc1cccc(C)c1-c1cc2nc(n1)NS(=O)(=O)c1cccc(c1)NC(=O)Nc1cccc(c1)O2 [Compound 1] ... 5.52 to 6.00

Consider the record given below.
Prompt: Fill in: pEC50 of Cc1cc2cc(c1)S(=O)(=O)Nc1nc(cc(-c3c(C)cccc3C)n1)OC[C@@H](CC1CCCCC1)NC2=O [Compound 74] is ___
Completion: > 6.00

* * *

Target: CFTR (Homo sapiens)
Assay: Membrane Potential Dye, Enteroid Assay A
Type: cell-based
Details: Table 9; read-out: Ent. A EC50
pEC50: −log10 of the molar value.
METRIC_NAME: pEC50

As a guide, the following entries are already answered.
CCC[C@H]1NC(=O)c2cccc(c2)S(=O)(=O)Nc2nc(cc(-c3c(C)cccc3C)n2)O[C@@H]1c1ccc(C(C)(C)C)cc1 ... > 6.00
CCC(CC)(CC)c1ccc([C@@H]2CNC(=O)c3cccc(c3)S(=O)(=O)Nc3nc(cc(-c4c(C)cccc4C)n3)O2)cc1 [Compound 259] ... > 6.00
Cc1cccc(C)c1-c1cc2nc(n1)NS(=O)(=O)c1cccc(c1)C(=O)NC[C@@H](c1ccc(CCC3(C(F)(F)F)CC3)cc1)O2 [Compound 145] ... > 6.00
Cc1cccc(C)c1-c1cc2nc(n1)NS(=O)(=O)c1cccc(c1)C(=O)N[C@H]1CCN(C3CC4(CCCC4)C3)C[C@H]1O2 ... 5.52 to 6.00
Cc1cccc(C)c1-c1cc2nc(n1)NS(=O)(=O)c1cccc(c1)C(=O)N[C@@H]1CCN(Cc3ccccc3)C[C@H]1O2 (stereo in doubt) ... > 6.00

Proceed to the following item.
Prompt: Please report the recorded pEC50 for `Cc1cccc(Cc2ccccc2)c1-c1cc2nc(n1)NS(=O)(=O)c1cccc(c1)C(=O)N[C@H](CC(C)C)CO2` .
Completion: > 6.00

* * *

Molecular target: CFTR (Homo sapiens, UniProt P13569)
Assay: Membrane Potential Dye, Enteroid Assay A
Assay type: cell-based
Conditions: Enteroid Assay A; read-out: Ent. A EC50
pEC50: −log10 of the molar value.
METRIC_NAME: pEC50

Take a look at these entries with their results.
COc1cccc(C)c1-c1cc2nc(n1)NS(=O)(=O)c1cccc(c1)C(=O)N[C@H](CC(C)C)CO2 ... 5.52 to 6.00
CC(C)C[C@@H]1COc2cc(C3=CCC(C)CC3)nc(n2)NS(=O)(=O)c2cccc(c2)C(=O)N1 (some centres unmarked) ... 5.52 to 6.00
Cc1cccc(C)c1-c1cc2nc(n1)NS(=O)(=O)c1cccc(c1)C(=O)N[C@H](Cc1ccccc1)CO2 ... > 6.00
CC(C)C[C@@H]1COc2cc(-c3ccccc3CC(C)(C)C)nc(n2)NS(=O)(=O)c2cccc(c2)C(=O)N1 ... > 6.00
CC(C)C[C@@H]1COc2cc(-c3ccccc3)nc(n2)NS(=O)(=O)c2cccc(c2)C(=O)N1 ... 4.52 to 5.52
Cc1cccc(C)c1-c1cc2nc(n1)NS(=O)(=O)c1cccc(c1)C(=O)N[C@H](CCC(C)C)CO2 ... > 6.00
Cc1cccc(C)c1-c1cc2nc(n1)NS(=O)(=O)c1cccc(c1)C(=O)N[C@H](CC1CC1)CO2 ... > 6.00
Cc1cccc(C)c1-c1cc2nc(n1)NS(=O)(=O)c1cccc(c1)C(=O)NCC(c1ccccc1)CO2 (centres unmarked) ... > 6.00
Cc1cccc(C)c1-c1cc2nc(n1)NS(=O)(=O)c1cccc(c1)C(=O)NCC(C)(C)CO2 ... 4.52 to 5.52
CC(C)C[C@@H]1COc2cc(-c3ccccc3OC(F)(F)F)nc(n2)NS(=O)(=O)c2cccc(c2)C(=O)N1 ... > 6.00

Prompt: Request the reported pEC50 associated with `Cc1cccc(C)c1-c1cc2nc(n1)NS(=O)(=O)c1cccc(c1)C(=O)NCC1(CCN(Cc3ccc(NC(=O)OC(C)(C)C)nc3)CC1)CO2`
Completion: 4.52 to 5.52

Prompt: Find the recorded pEC50 belonging to `CC(C)C[C@@H]1COc2cc(C3=CCC(C)(C)CC3)nc(n2)NS(=O)(=O)c2cccc(c2)C(=O)N1` and report it.
Completion: 5.52 to 6.00

Prompt: # input compound: Cc1cccc(C)c1-c1cc2nc(n1)NS(=O)(=O)c1cccc(c1)C(=O)NCC1(CCN(CCC(C)CC(C)(C)C)CC1)CO2 (centres unmarked) ; wanted: its pEC50
Completion: > 6.00

Prompt: Given Cc1cccc(C)c1-c1cc2nc(n1)NS(=O)(=O)c1cccc(c1)CNC1C[C@@H](CN(C(=O)OCc3ccccc3)C1)O2 (stereo in doubt) [Compound 193] , state its recorded pEC50.
Completion: 5.52 to 6.00

* * *

Overview of reported pEC50 across a group of compounds:
Target: UniProt P13569
Assay: Membrane Potential Dye, Enteroid Assay A
Type: cell-based
Conditions: Table 9; read-out: Ent. A EC50
pEC50: −log10 of the molar value.

# example entries with known answers
Cc1cccc(C)c1-c1cc2nc(n1)NS(=O)(=O)c1cccc(c1)C(=O)N[C@@H]1CN(C(C)C)C[C@H]1O2 ... 4.52 to 5.52
Cc1cccc(C)c1-c1cc2nc(n1)NS(=O)(=O)c1cccc(c1)C(=O)NCCCC(c1ccc(C(C)(C)C)cc1)O2 (stereo not shown) ... > 6.00
Cc1cccc(C)c1-c1cc2nc(n1)NS(=O)(=O)c1cccc(c1)C(=O)N[C@@H](C(CC(C)C)c1ccccc1)CO2 (stereo in doubt) [Compound 183] ... > 6.00
Cc1cccc(C)c1-c1cc2nc(n1)NS(=O)(=O)c1cccc(c1)C(=O)NCC(c1ccc([Si](C)(C)C)cc1)O2 (single isomer, unassigned) [Compound 16] ... > 6.00
Cc1cccc(C)c1-c1cc2nc(n1)NS(=O)(=O)c1cccc(c1)C(=O)NCC(c1ccc(C34CC(C3)C4)cc1)O2 (stereo not shown) [Compound 397] ... 4.52 to 5.52

Prompt: Fill in: pEC50 of Cc1cccc(C)c1-c1cc2nc(n1)NS(=O)(=O)c1cccc(c1)C(=O)NCC(c1ccc(CC[Si](C)(C)C)cc1)O2 (stereo not shown) is ___
Completion: > 6.00

Prompt: Fill in: pEC50 of `Cc1cccc(C)c1-c1cc2nc(n1)NS(=O)(=O)c1cccc(c1)CN[C@H](CC(C)C)CO2` is ___
Completion: 4.52 to 5.52

Prompt: Suppose we examine the compound `CC(C)C[C@@H]1COc2cc(-c3ccccc3-c3ccccc3)nc(n2)NS(=O)(=O)c2cccc(c2)C(=O)N1` ; what pEC50 value has been reported?
Completion: > 6.00

Prompt: Sample Cc1cccc(C)c1-c1cc2nc(n1)NS(=O)(=O)c1cccc(c1)C(=O)N[C@@H](C(CC(C)C)c1ccccc1)CO2 (stereo in doubt) [Compound 182] — what was its pEC50?
Completion: > 6.00

Prompt: Value lookup for pEC50; key = `Cc1cccc(C)c1-c1cc2nc(n1)NS(=O)(=O)c1cccc(c1)C(=O)NC1(CCN(CCC(C)(C)C)CC1)CO2`
Completion: 5.52 to 6.00

Prompt: Sample Cc1cccc(C)c1-c1cc2nc(n1)NS(=O)(=O)c1cccc(c1)C(=O)NC[C@H](c1ccc(/C=C/C(C)(C)C)cc1)O2 (stereo in doubt) [Compound 151] — what was its pEC50?
Completion: > 6.00

Prompt: Could you tell me which pEC50 is on file for Cc1cccc(C)c1-c1cc2nc(n1)NS(=O)(=O)c1cccc(c1)C(=O)N[C@@H](CC13CC4CC(CC(C4)C1)C3)CO2 (single isomer, unassigned) [Compound 111] ?
Completion: > 6.00

Prompt: Which pEC50 value belongs to Cc1cccc(C)c1-c1cc2nc(n1)NS(=O)(=O)c1cccc(c1)C(=O)NCC(c1ccc(CC3(C(F)(F)F)CC3)cc1)O2 (stereo not shown) ?
Completion: > 6.00

Sourced from patent US20230382924A1
